biological target: recombinant L. donovani CYP51 (Leishmania donovani); experiment: Fluorescence-based L. donovani CYP51 inhibition assay
pIC50: −log10 of the molar value.
Quick list: pIC50 per entry.

>  <compound>
CCOc1cc(OCCCCCCCCn2ccnc2)ccc1NC(=N)c1ccccn1 [Compound 24b]

>  <pIC50>
6.47

$$$$
>  <compound>
N=C(Nc1ccc(OCCCCCCCCCCn2ccnc2)cc1)c1ccccn1

>  <pIC50>
6.66

$$$$
>  <compound>
N=C(Nc1ccc(OCCCCCCCCn2ccnc2)cc1Cl)c1ccccn1

>  <pIC50>
6.82

$$$$
>  <compound>
COc1cc(OCCCCCCCCn2ccnc2)ccc1NC(=N)c1ccccn1 [Compound 24a]

>  <pIC50>
6.44

$$$$
>  <compound>
COc1cc(NC(=N)c2ccccn2)ccc1OCCCCCCCCn1ccnc1 [Compound 17a]

>  <pIC50>
6.24

$$$$
>  <compound>
N=C(Nc1ccc(OCCCCCCCCn2ccnc2)cc1)c1ccccn1

>  <pIC50>
6.44

$$$$
>  <compound>
N=C(Nc1ccc(OCCn2cncn2)cc1)c1ccccn1

>  <pIC50>
4.46

$$$$
>  <compound>
N=C(Nc1ccc(OCCCCCCn2ccnc2)cc1)c1ccccn1

>  <pIC50>
5.89

$$$$
>  <compound>
N=C(Nc1ccc(OCCn2ccnc2)cc1)c1ccccn1

>  <pIC50>
4.68

$$$$
>  <compound>
CC(C)Oc1cc(NC(=N)c2ccccn2)ccc1OCCCCCCCCn1ccnc1 [Compound 17c]

>  <pIC50>
6.54

$$$$
>  <compound>
CCOc1cc(NC(=N)c2ccccn2)ccc1OCCCCCCCCn1ccnc1 [Compound 17b]

>  <pIC50>
6.28

$$$$
